Sourced from patent US8563723B2

target: 5-HT6 receptor (Homo sapiens, UniProt P50406); test: In vitro affinity for human 5-HT6 receptors ([3H]-LSD binding, CHO cell membranes); parameters: host or cells: CHO/Gα16/mtAEQ/h5HT6-A1 cells; details: [3H]-LSD, membranes of CHO cells with human 5-HT6; comparison table Example 6; read-out: 5-HT6 pKi (converted)
Sequence (P50406 whole entry): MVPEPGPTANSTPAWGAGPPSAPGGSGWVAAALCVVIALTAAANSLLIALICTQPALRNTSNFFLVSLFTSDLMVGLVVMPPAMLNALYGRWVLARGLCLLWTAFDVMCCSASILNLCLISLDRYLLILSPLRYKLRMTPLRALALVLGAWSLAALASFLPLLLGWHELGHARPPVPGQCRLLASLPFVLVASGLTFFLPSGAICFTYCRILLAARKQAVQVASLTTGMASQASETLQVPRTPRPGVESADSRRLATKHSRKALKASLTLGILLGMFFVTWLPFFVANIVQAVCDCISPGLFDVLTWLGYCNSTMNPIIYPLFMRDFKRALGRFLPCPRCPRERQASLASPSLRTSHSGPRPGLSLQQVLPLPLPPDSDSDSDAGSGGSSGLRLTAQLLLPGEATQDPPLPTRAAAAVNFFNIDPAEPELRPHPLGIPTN
quantity_name: Ki (nM)

(A) CCN/C(=N\S(=O)(=O)c1ccc(N)c(Cl)c1)N1CC2(C=N1)CCCC2
(B) CCN/C(=N\S(=O)(=O)c1ccc(O)cc1)N1CC(C)(C)C=N1
(C) CCN/C(=N\S(=O)(=O)c1cccc(Cl)c1)N1CC2(C=N1)CCCC2 [Compound 49 from WO 2008/034863, reference compound]
Query: Which order do these items take when sorted by rising Ki? List them. Answer by listing the labels in the requested order.
Reply: A, C, B
(A: 1.58 nM, C: 5.01 nM, B: 12.6 nM)

----------
biological target: 5-HT6 receptor (Homo sapiens); test: In vitro functional activity ((ant)agonism) on human 5-HT6 receptors, CHO-human-5HT6-Aequorin assay; format: cell-based; set-up: host or cells: CHO AequoScreen recombinant cell line (expresses mitochondrial targeted apo-Aequorin); details: antagonism of 10^-8 M α-methylserotonin induced luminescence; main compound table; read-out: 5-HT6 pA2 (converted)
quantity_name: Kb (nM)

Please review the entries below; each comes with its answer.
N/C(=N\S(=O)(=O)c1ccc(N)cc1)N1CC2(C=N1)CCCC2 [Compound 5] | 79.4
CCN/C(=N\S(=O)(=O)c1cccc(N)c1)N1CC(C)(C)C=N1 [Compound 30] | 126
CCN/C(=N\S(=O)(=O)c1ccc(O)c(Cl)c1)N1CC(C)(C)C=N1 [Compound 27] | 25.1
CCN/C(=N\S(=O)(=O)c1ccc(N)c(Cl)c1)N1CC(C)(C)C=N1 [Compound 13] | 3.16
CCN/C(=N\S(=O)(=O)c1ccc(O)cc1)N1CC(CC)C=N1 (stereo not shown) [Compound 19] | 2.51

(1) CCN/C(=N\S(=O)(=O)c1ccc(N)cc1)N1CC(CC)C=N1 (single isomer, unassigned) [Compound 1]
(2) CCN/C(=N\S(=O)(=O)c1cc(O)cc(Cl)c1)N1CC2(C=N1)CCCCC2 [Compound 55]
Query: So which one has the bigger Kb here, 1 or 2 ? State the label of the item chosen.
Reply: 1
(1: 2 nM, 2: 0.2 nM)

----------
biological target: 5-HT6 receptor (Homo sapiens, UniProt P50406); test: In vitro affinity for human 5-HT6 receptors ([3H]-LSD binding, CHO cell membranes); parameters: host or cells: CHO/Gα16/mtAEQ/h5HT6-A1 cells; conditions: [3H]-LSD, membranes of CHO cells with human 5-HT6; comparison table Example 6; read-out: 5-HT6 pKi (converted)
quantity_name: Ki (nM)

CCN/C(=N\S(=O)(=O)c1ccc(N)cc1)N1CC(C)(C)C=N1 [Compound 3] | 12.6

(P) CCN/C(=N\S(=O)(=O)c1ccc(O)cc1)N1CC(CC)C=N1 (stereo not shown) [Compound 19]
(Q) CCN/C(=N\S(=O)(=O)c1ccc(OC)cc1)N1CC(CC)C=N1 (stereo not shown) [Compound 81 from WO 2008/034863, reference compound]
(R) CCN/C(=N\S(=O)(=O)c1ccc(N)c(Cl)c1)N1CC(C)(C)C=N1 [Compound 13]
Query: Order field: Ki | Direction: descending (largest first) Answer by listing the labels in the requested order.
Reply: Q, R, P
(Q: 63.1 nM, R: 6.31 nM, P: 3.16 nM)

----------
experiment: in vitro; details: human, hepatocytes
quantity_name: half-life at 1 μg/ml (h)

CCN/C(=N\S(=O)(=O)c1ccc(N)c(Cl)c1)N1CC2(C=N1)CCCC2 | 0.85

(a) CCN/C(=N\S(=O)(=O)c1ccc(OC)cc1)N1CC(CC)C=N1 (stereo not drawn) [Compound 81 from WO 2008/034863, reference compound]
(b) CCN/C(=N\S(=O)(=O)c1ccc(O)cc1)N1CC(CC)C=N1 (stereo not drawn)
(c) CCN/C(=N\S(=O)(=O)c1ccc(O)cc1)N1CC(C)(C)C=N1
(d) CCN/C(=N\S(=O)(=O)c1ccc(N)c(Cl)c1)N1CC(C)(C)C=N1
Query: Put the compounds in ascending order of half-life at 1 μg/ml. Answer by listing the labels in the requested order.
Reply: a, b, d, c
(a: 1.13 h, b: 5.9 h, d: 11.7 h, c: 24.1 h)

----------
biological target: 5-HT6 receptor (Homo sapiens); test: In vitro affinity for human 5-HT6 receptors ([3H]-LSD binding, CHO cell membranes); design: host or cells: CHO/Gα16/mtAEQ/h5HT6-A1 cells; details: [3H]-LSD, membranes of CHO cells with human 5-HT6; main compound table; read-out: 5-HT6 pKi (converted)
quantity_name: Ki (nM)

CCN/C(=N\S(=O)(=O)c1ccc(O)cc1)N1CC(CC)C=N1 (single isomer, unassigned) [Compound 21] | 10
CCN/C(=N\S(=O)(=O)c1cccc(N)c1)N1CC(CC)C=N1 (stereo not shown) | 63.1

(1) CCN/C(=N\S(=O)(=O)c1ccc(N)cc1)N1CC2(C=N1)CCOCC2
(2) CCN/C(=N\S(=O)(=O)c1ccc2[nH]ccc2c1)N1CC2(C=N1)CCCCC2
Query: # query: argmin of Ki over 1 and 2 State the label of the item chosen.
Reply: 2
(2: 3.16 nM, 1: 63.1 nM)

----------
biological target: 5-HT6 receptor (Homo sapiens, UniProt P50406); experiment: In vitro affinity for human 5-HT6 receptors ([3H]-LSD binding, CHO cell membranes); parameters: host or cells: CHO/Gα16/mtAEQ/h5HT6-A1 cells; conditions: [3H]-LSD, membranes of CHO cells with human 5-HT6; main compound table; read-out: 5-HT6 pKi (converted)
quantity_name: Ki (nM)

CCN/C(=N\S(=O)(=O)c1cc(O)cc(Cl)c1)N1CC2(C=N1)CCNCC2 | 7.94

(P) CCN/C(=N\S(=O)(=O)c1ccc(O)c(Cl)c1)N1CC(C)(C)C=N1
(Q) CCN/C(=N\S(=O)(=O)c1ccc2[nH]ccc2c1)N1CC(CC)C=N1 (centres unmarked)
(R) CCN/C(=N\S(=O)(=O)c1ccc2[nH]ccc2c1)N1CC(C)(C)C=N1
(S) CCN/C(=N\S(=O)(=O)c1ccc(N)c(Cl)c1)N1CC(CC)C=N1 (single isomer, unassigned) [Compound 12]
Query: Order field: Ki | Direction: descending (largest first) Answer by listing the labels in the requested order.
Reply: P, R, Q, S
(P: 15.8 nM, R: 7.94 nM, Q: 3.98 nM, S: 1.58 nM)

(1) CCN/C(=N\S(=O)(=O)c1ccc(O)cc1)N1CC2(C=N1)CCNCC2
(2) CCN/C(=N\S(=O)(=O)c1ccc(O)cc1)N1CC(CC)C=N1 (centres unmarked) [Compound 19]
Query: # query: argmin of Ki over 1 and 2 State the label of the item chosen.
Reply: 2
(2: 3.16 nM, 1: 12.6 nM)

----------
target: 5-HT6 receptor (Homo sapiens); experiment: In vitro functional activity ((ant)agonism) on human 5-HT6 receptors, CHO-human-5HT6-Aequorin assay; assay type: cell-based; parameters: host or cells: CHO AequoScreen recombinant cell line (expresses mitochondrial targeted apo-Aequorin); conditions: antagonism of 10^-8 M α-methylserotonin induced luminescence; main compound table; read-out: 5-HT6 pA2 (converted)
quantity_name: Kb (nM)

(P) CCN/C(=N\S(=O)(=O)c1ccc(O)cc1)N1CC(CC)C=N1 (single isomer, unassigned) [Compound 21]
(Q) N/C(=N\S(=O)(=O)c1ccc(N)cc1)N1CC2(C=N1)CCOCC2 [Compound 9]
(R) CCN/C(=N\S(=O)(=O)c1cccc(O)c1)N1CC(C)(C)C=N1 [Compound 36]
(S) CCN/C(=N\S(=O)(=O)c1ccc2[nH]ccc2c1)N1CC(C)(C)C=N1 [Compound 57]
Query: Which order do these items take when sorted by rising Kb? List them. Answer by listing the labels in the requested order.
Reply: S, P, R, Q
(S: 2.51 nM, P: 6.31 nM, R: 31.6 nM, Q: 200 nM)

----------
assay: in vitro; conditions: rat, hepatocytes
quantity_name: half-life at 1 μg/ml (min)

Please review the entries below; each comes with its answer.
CCN/C(=N\S(=O)(=O)c1ccc(N)c(Cl)c1)N1CC2(C=N1)CCCC2 [Compound 14] | 17
CCN/C(=N\S(=O)(=O)c1ccc(N)cc1)N1CC(C)(C)C=N1 [Compound 3] | 71
CCN/C(=N\S(=O)(=O)c1ccc(OC)cc1)N1CC(CC)C=N1 (stereo not drawn) [Compound 81 from WO 2008/034863, reference compound] | 16

(I) CCN/C(=N\S(=O)(=O)c1ccc(N)c(Cl)c1)N1CC(C)(C)C=N1 [Compound 13]
(II) CCN/C(=N\S(=O)(=O)c1ccc(O)cc1)N1CC(C)(C)C=N1 [Compound 22]
Query: So which one has the bigger half-life at 1 μg/ml here, I or II ? State the label of the item chosen.
Reply: II
(II: 33 min, I: 22 min)
